Biological target: UniProt P14842
Assay: Agonistic activity against 5-hydroxytryptamine 2A receptor in rat cortex using [3H]-ketanserin
Format: tissue-based
The following compounds are shown together with reported Ki values.
Units required after the number.

State its Ki on UniProt P14842: CCCCC/N=C(/N)N/N=C/c1c[nH]c2ccc(OC(C)C)cc12
2510 nM

State its Ki on UniProt P14842: Cl.N/C(=N/N=C/c1c[nH]c2ccc(O)cc12)NCCc1ccc(Cl)c(Cl)c1
191 nM

* * *

Target: 5-hydroxytryptamine receptor 4 (Cavia porcellus)
Assay: Relative efficacy compared to serotonin(1) in 5-hydroxytryptamine 4 assay
Format: functional
The following compounds are shown together with reported Relative efficacy values.
Write no unit; give the number alone.

STRUCTURE SMILES	OBSERVED RESULT
N/C(=N/N=C/c1c[nH]c2ccc(O)cc12)NCCCc1ccccc1	0.4
CCCCC/N=C(/N)N/N=C/c1c[nH]c2ccc(OCCC(C)C)cc12	0.8
CCCCC/N=C(/N)N/N=C/c1c[nH]c2ccc(OC(=O)CCCCC)cc12	0

Using the record for CCCCC/N=C(/N)N/N=C/c1c[nH]c2ccc(NS(C)(=O)=O)cc12 , report its Relative efficacy.
0

Using the record for CCCC(=O)/N=C(/N)N/N=C/c1c[nH]c2ccc(O)cc12 , report its Relative efficacy.
1

* * *

Molecular target: UniProt O70528
Test: 5-hydroxytryptamine 4 receptor agonistic activity was measured by twitch response enhancing activity in electrically stimulated guinea pig ileum preparation
Assay type: functional, tissue-based
The following compounds are shown together with reported pD2 values.

Would you please look over these solved cases?
STRUCTURE SMILES	OBSERVED RESULT
CCCCCNC(=N)N/N=C/c1c[nH]c2ccc(O)cc12	9.3
N/C(=N/N=C/c1c[nH]c2ccc(O)cc12)NCCc1ccccc1Cl	8.5
Oc1ccc2[nH]cc(/C=N/NC3=NCCC3)c2c1	7.1
N/C(=N/N=C/c1c[nH]c2ccc(O)cc12)NCCc1ccccc1	9.1

Using the record for CCCCC/N=C(/N)N/N=C/c1c[nH]c2ccc(OCCC(C)C)cc12 , report its pD2.
5.9

Using the record for CN1CCN=C1N/N=C/c1c[nH]c2ccc(O)cc12 , report its pD2.
< 4

* * *

Molecular target: 5-hydroxytryptamine receptor 4 (Cavia porcellus)
Assay: 5-hydroxytryptamine 4 receptor agonistic activity was measured by twitch response enhancing activity in electrically stimulated guinea pig ileum preparation
Format: functional, tissue-based
The following compounds are shown together with reported pD2 values.
Write no unit; give the number alone.

STRUCTURE SMILES	QUANTITY KIND	OBSERVED RESULT
CCCCC/N=C(/N)N/N=C/c1c[nH]c2ccc(OC(=O)c3ccccc3)cc12	pD2	7
COc1cccc(CCNC(=N)N/N=C/c2c[nH]c3ccc(O)cc23)c1	pD2	8.9
N/C(=N/N=C/c1c[nH]c2ccc(O)cc12)NCCCO	pD2	7.7
N/C(=N/C(=O)NC1CCCCC1)N/N=C/c1c[nH]c2ccc(O)cc12	pD2	8.5
CCCCCN(C)C(=N)N/N=C/c1c[nH]c2ccc(O)cc12	pD2	7.7
Oc1ccc2[nH]cc(/C=N/Nc3ncc[nH]3)c2c1	pD2	8.2
N/C(=N/N=C/c1c[nH]c2ccc(O)cc12)NCCc1ccc(Cl)cc1	pD2	8.4
CCCCC/N=C(/N)N/N=C/c1c[nH]c2ccc(OCC=C(C)C)cc12	pD2	8.15

Using the record for CCCCC/N=C(/N)N/N=C/c1c[nH]c2ccc(O)nc12 , report its pD2.
7.8

* * *

The following compounds are shown together with reported pA2 values.
Target: Serotonin 3 (5-HT3) receptor
Test: Antagonistic activity against 5-hydroxytryptamine 3 receptor in guinea pig ileum assay

STRUCTURE SMILES	OBSERVED RESULT
CCCCC/N=C(/N)N/N=C/c1c[nH]c2ccc(OCC=C(C)C)cc12	< 5
CCCCCNC(=N)N/N=C/c1c[nH]c2ccc(O)cc12	< 5
Cl.N=C(N)N/N=C/c1c[nH]c2ccc(O)cc12	< 5
Cl.N/C(=N/N=C/c1c[nH]c2ccc(O)cc12)NCCc1ccc(Cl)c(Cl)c1	< 5

Using the record for CCCCC/N=C(/N)N/N=C/c1c[nH]c2ccc(OC(C)C)cc12 , report its pA2.
< 5

* * *

Biological target: 5-hydroxytryptamine receptor 4 (Cavia porcellus) (UniProt O70528)
Sequence (O70528 whole entry): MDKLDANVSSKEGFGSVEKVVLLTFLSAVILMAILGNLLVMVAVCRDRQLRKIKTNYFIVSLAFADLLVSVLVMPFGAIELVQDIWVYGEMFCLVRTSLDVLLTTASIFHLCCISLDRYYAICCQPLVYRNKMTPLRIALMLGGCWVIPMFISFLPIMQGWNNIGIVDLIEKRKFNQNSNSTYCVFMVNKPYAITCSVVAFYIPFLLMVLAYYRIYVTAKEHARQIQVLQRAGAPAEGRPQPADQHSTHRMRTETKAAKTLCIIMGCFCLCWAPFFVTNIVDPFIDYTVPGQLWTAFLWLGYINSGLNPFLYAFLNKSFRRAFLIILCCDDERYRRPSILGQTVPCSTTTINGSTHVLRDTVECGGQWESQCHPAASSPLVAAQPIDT
Experiment: Relative efficacy compared to serotonin(1) in 5-hydroxytryptamine 4 assay
Assay type: functional
QUANTITY KIND: Relative efficacy
Write no unit; give the number alone.

Would you please look over these solved cases?
STRUCTURE SMILES	TARGET UNDER TEST	Relative efficacy
CCCCC/N=C(/N)N/N=C/c1c[nH]c2ccc(N)cc12	5-hydroxytryptamine receptor 4 (Cavia porcellus) (UniProt O70528)	1.6
CCCCCN(C)C(=N)N/N=C/c1c[nH]c2ccc(O)cc12	5-hydroxytryptamine receptor 4 (Cavia porcellus) (UniProt O70528)	0.3
CCCCC/N=C(/N)N/N=C/c1c[nH]c2ccc(OCCO)cc12	5-hydroxytryptamine receptor 4 (Cavia porcellus) (UniProt O70528)	1
CCCCCCCN(C)C(=N)N/N=C/c1c[nH]c2ccc(O)cc12	5-hydroxytryptamine receptor 4 (Cavia porcellus) (UniProt O70528)	1.6
CCCCC/N=C(/N)N/N=C/c1c[nH]c2ccc(OCC(=O)N(C)C)cc12	5-hydroxytryptamine receptor 4 (Cavia porcellus) (UniProt O70528)	1.4

Using the record for Cl.N=C(N)N/N=C/c1c[nH]c2ccc(O)cc12 , report its Relative efficacy.
1.5

Using the record for CCCCC/N=C(/N)N/N=C/c1c[nH]c2ccc(OCC=C(C)C)cc12 , report its Relative efficacy.
2.2

Using the record for Oc1ccc2[nH]cc(/C=N/Nc3ccccn3)c2c1 , report its Relative efficacy.
0.8

Using the record for CCCCC/N=C(/N)N/N=C/c1c[nH]c2ccc(OCCOC)cc12 , report its Relative efficacy.
0.7

Using the record for CCCCCCCCNC(=N)N/N=C/c1c[nH]c2ccc(O)cc12 , report its Relative efficacy.
0

Using the record for CCCCC/N=C(/N)N/N=C/c1c[nH]c2ccc(OC(=O)c3ccccc3)cc12 , report its Relative efficacy.
0.5

* * *

Target: 5-hydroxytryptamine receptor 2A (Rattus norvegicus, UniProt P14842)
Sequence (P14842 whole entry): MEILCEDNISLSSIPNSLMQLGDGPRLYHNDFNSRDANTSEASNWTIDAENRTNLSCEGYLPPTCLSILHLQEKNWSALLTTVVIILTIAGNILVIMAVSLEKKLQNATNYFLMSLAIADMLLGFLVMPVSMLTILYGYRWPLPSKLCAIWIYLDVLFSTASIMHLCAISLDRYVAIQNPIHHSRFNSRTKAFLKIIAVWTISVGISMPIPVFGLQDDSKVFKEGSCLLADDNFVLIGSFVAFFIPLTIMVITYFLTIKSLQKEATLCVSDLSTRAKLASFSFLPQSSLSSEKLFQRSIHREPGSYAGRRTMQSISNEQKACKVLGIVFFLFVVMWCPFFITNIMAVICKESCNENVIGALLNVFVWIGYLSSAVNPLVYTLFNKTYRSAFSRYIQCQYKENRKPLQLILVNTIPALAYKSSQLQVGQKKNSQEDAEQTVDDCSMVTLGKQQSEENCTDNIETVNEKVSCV
Assay: Agonistic activity against 5-hydroxytryptamine 2A receptor in rat cortex using [3H]ketanserin
Type: tissue-based
QUANTITY KIND: pKi
# pKi is unitless: minus log10 of the molar concentration; print number only

Would you please look over these solved cases?
STRUCTURE SMILES	TARGET UNDER TEST	OBSERVED RESULT
Oc1ccc2[nH]cc(/C=N/Nc3ncc[nH]3)c2c1	5-hydroxytryptamine receptor 2A (Rattus norvegicus, UniProt P14842)	5.79
CCCCCNC(=N)N/N=C/c1c[nH]c2ccc(O)cc12	5-hydroxytryptamine receptor 2A (Rattus norvegicus, UniProt P14842)	6.65
CCCCC/N=C(/N)N/N=C/c1c[nH]c2ccc(O)nc12	5-hydroxytryptamine receptor 2A (Rattus norvegicus, UniProt P14842)	5.87

Using the record for CCCCCCCN(C)C(=N)N/N=C/c1c[nH]c2ccc(O)cc12 , report its pKi.
5.63

Using the record for CCCCC/N=C(/N)N/N=C/c1c[nH]c2ccc(OCC=C(C)C)cc12 , report its pKi.
5.20

* * *

Target: 5-hydroxytryptamine receptor 4 (Cavia porcellus) (UniProt O70528)
Assay: Relative efficacy compared to serotonin(1) in 5-hydroxytryptamine 4 assay
Format: functional
The following compounds are shown together with reported Relative efficacy values.

Would you please look over these solved cases?
STRUCTURE SMILES	QUANTITY KIND	OBSERVED RESULT
CN(/N=C/c1c[nH]c2ccc(O)cc12)C(=N)N	Relative efficacy	0.5
CCCCC/N=C(/N)N/N=C/c1csc2ccc(OC)cc12	Relative efficacy	0.5
CCCCC/N=C(/N)N/N=C/c1c[nH]c2ccccc12	Relative efficacy	0.1
Oc1ccc2[nH]cc(/C=N/NC3=NCCC3)c2c1	Relative efficacy	1
CCCCC/N=C(/N)N/N=C/c1c[nH]c2ccc(OCc3ccccc3)cc12	Relative efficacy	1.8
CCCCCNC(=N)N/N=C/c1c[nH]c2ccc(OC)cc12	Relative efficacy	0.2

Using the record for Cl.N/C(=N/N=C/c1c[nH]c2ccc(O)cc12)NCCc1ccc(Cl)c(Cl)c1 , report its Relative efficacy.
0.1

Using the record for CCCCC/N=C(/N)N/N=C/c1[nH]nc2ccc(OC)cc12 , report its Relative efficacy.
0

Using the record for N/C(=N/C(=O)NC1CCCCC1)N/N=C/c1c[nH]c2ccc(O)cc12 , report its Relative efficacy.
0.5

Using the record for CCCCC/N=C(/N)N/N=C/c1[nH]nc2ccc(O)cc12 , report its Relative efficacy.
0

Using the record for Oc1ccc2[nH]cc(/C=N/NC3=NCCN3)c2c1 , report its Relative efficacy.
0.7

* * *

Biological target: 5-hydroxytryptamine receptor 4 (Cavia porcellus)
Experiment: 5-hydroxytryptamine 4 receptor agonistic activity was measured by twitch response enhancing activity in electrically stimulated guinea pig ileum preparation
Format: functional, tissue-based
The following molecules are shown together with reported pD2 values.
Write no unit; give the number alone.

Using the record for CN(/N=C/c1c[nH]c2ccc(O)cc12)C(=N)N , report its pD2.
5.8

Using the record for CCCCC/N=C(/N)N/N=C/c1c[nH]c2ccc(OCCN(C)C)cc12 , report its pD2.
7.6

Using the record for Oc1ccc2[nH]cc(/C=N/Nc3ccccn3)c2c1 , report its pD2.
6.1

Using the record for CCCCCNC(=N)N/N=C/c1c[nH]c2ccc(OC)cc12 , report its pD2.
6.9

Using the record for CCCC(=O)/N=C(/N)N/N=C/c1c[nH]c2ccc(O)cc12 , report its pD2.
7.7

Sourced from ChEMBL document CHEMBL1128684
